# ASSAYED_TARGET: Recombinant SARS-CoV-2 PLpro (Severe acute respiratory syndrome coronavirus 2)
# ASSAY_SUMMARY: FRET enzymatic inhibition assay, PLpro
# Assay type: biochemical
# TEST_PARAMETERS: read-out: Apparent IC50 PLpro
VALUE_KIND: IC50 (µM)
Give the value in µM but do not write µM after it.

input: Requested field: IC50. Item: C=C(C)C(=O)OC1CC2(C)OC(=CC2=O)C(CO)=CC2OC(=O)C(=C)C21 (stereo not shown) [Goyazensolide, goyazensolide]
output: 317

====

# ASSAY_SUMMARY: Cell viability, MTT assay, HCT-116
# Type: cell-based, human
# TEST_PARAMETERS: human, 10 µM
VALUE_KIND: viability at 48 h, 10 µM (%)
Give the value in % but do not write % after it.

input: Requested field: viability at 48 h, 10 µM. Item: C=C1C(=O)OC2C=C(CO)C3=CC(=O)C(C)(CC(OC(=O)C(C)=CC)C12)O3 (stereo not shown)
output: 0

====

# ASSAY_SUMMARY: Cell viability, crystal violet (CV) assay, HCT-116
# Assay type: cell-based
# TEST_PARAMETERS: human, HCT-116 colorectal carcinoma cells, 0.01 µM
VALUE_KIND: viability at 48 h, 0.01 µM

input: Requested field: viability at 48 h, 0.01 µM. Item: C=C(C)C(=O)OC1CC2(C)OC(=CC2=O)C(CO)=CC2OC(=O)C(=C)C21 (stereo not shown) [Goyazensolide, goyazensolide]
output: 113%

====

# ASSAY_SUMMARY: Cell viability, MTT assay, PC-3
# Format: cell-based, human
# TEST_PARAMETERS: human, 125 µg/mL (101.7 µM), positive control
# Procedure: The cytotoxicity of crude extract and isolated compounds were evaluated against the human tumor cell lines PC-3 (prostatic carcinoma cell) and HCT-116 (colorectal carcinoma cell). Cell maintenance was performed as described in the literature. […] Cell viability was determined by MTT and crystal violet (CV) assays after 48 h of incubation. Absorbance was measured using an automated microplate reader at 540 nm with a reference wavelength of 670 nm. […]
VALUE_KIND: viability at 48 h, 101.7 µM (%)
Give the value in % but do not write % after it.

input: Requested field: viability at 48 h, 101.7 µM. Item: C[C@@H]1CC[C@@]2(OC1)O[C@H]1[C@@H](O)[C@H]3[C@@H]4CC[C@H]5C[C@@H](O[C@@H]6O[C@H](CO)[C@H](O[C@@H]7O[C@H](CO)[C@@H](O)[C@H](O[C@@H]8OC[C@@H](O)[C@H](O)[C@H]8O)[C@H]7O[C@@H]7O[C@H](CO)[C@H](O)[C@H](O[C@@H]8O[C@H](CO)[C@@H](O)[C@H](O)[C@H]8O)[C@H]7O)[C@H](O)[C@H]6O)[C@H](O)C[C@]5(C)[C@H]4CC[C@]3(C)[C@H]1[C@@H]2C [DGTN, digitonin, reference compound]
output: 0

====

# ASSAY_SUMMARY: Cell viability, crystal violet (CV) assay, PC-3
# Format: cell-based
# TEST_PARAMETERS: human, 125 µg/mL (101.7 µM), positive control
VALUE_KIND: viability at 48 h, 101.7 µM (%)
Give the value in % but do not write % after it.

input: Requested field: viability at 48 h, 101.7 µM. Item: C[C@@H]1CC[C@@]2(OC1)O[C@H]1[C@@H](O)[C@H]3[C@@H]4CC[C@H]5C[C@@H](O[C@@H]6O[C@H](CO)[C@H](O[C@@H]7O[C@H](CO)[C@@H](O)[C@H](O[C@@H]8OC[C@@H](O)[C@H](O)[C@H]8O)[C@H]7O[C@@H]7O[C@H](CO)[C@H](O)[C@H](O[C@@H]8O[C@H](CO)[C@@H](O)[C@H](O)[C@H]8O)[C@H]7O)[C@H](O)[C@H]6O)[C@H](O)C[C@]5(C)[C@H]4CC[C@]3(C)[C@H]1[C@@H]2C [DGTN, digitonin, reference compound]
output: 0

====

# ASSAY_SUMMARY: Cell viability, crystal violet (CV) assay, PC-3
# Assay type: cell-based
# TEST_PARAMETERS: human, PC-3 prostatic carcinoma cells, 10 µM
VALUE_KIND: viability at 48 h, 10 µM (%)
Give the value in % but do not write % after it.

input: Requested field: viability at 48 h, 10 µM. Item: C=C(C)C(=O)OC1CC2(C)OC(=CC2=O)C(CO)=CC2OC(=O)C(=C)C21 (stereo not shown) [Goyazensolide, goyazensolide]
output: 91.4

====

# ASSAY_SUMMARY: Cell viability, crystal violet (CV) assay, HCT-116
# Assay type: cell-based
# TEST_PARAMETERS: human, HCT-116 colorectal carcinoma cells, 10 µM
VALUE_KIND: viability at 48 h, 10 µM

input: Requested field: viability at 48 h, 10 µM. Item: C=C(C)C(=O)OC1CC2(C)OC(=CC2=O)C(CO)=CC2OC(=O)C(=C)C21 (stereo not shown) [Goyazensolide, goyazensolide]
output: 92.1%

====

# ASSAY_SUMMARY: Cell viability, MTT assay, PC-3
# Type: cell-based, human
# TEST_PARAMETERS: human, 10 µM
VALUE_KIND: viability at 48 h, 10 µM (%)
Give the value in % but do not write % after it.

input: Requested field: viability at 48 h, 10 µM. Item: C=C1C(=O)OC2C=C(CO)C3=CC(=O)C(C)(CC(OC(=O)C(C)=CC)C12)O3 (stereo not shown)
output: 0

====

# ASSAY_SUMMARY: Cell viability, MTT assay, HCT-116
# Assay type: cell-based, human
# TEST_PARAMETERS: human, 125 µg/mL (101.7 µM), positive control
VALUE_KIND: viability at 48 h, 101.7 µM (%)
Give the value in % but do not write % after it.

input: Requested field: viability at 48 h, 101.7 µM. Item: C[C@@H]1CC[C@@]2(OC1)O[C@H]1[C@@H](O)[C@H]3[C@@H]4CC[C@H]5C[C@@H](O[C@@H]6O[C@H](CO)[C@H](O[C@@H]7O[C@H](CO)[C@@H](O)[C@H](O[C@@H]8OC[C@@H](O)[C@H](O)[C@H]8O)[C@H]7O[C@@H]7O[C@H](CO)[C@H](O)[C@H](O[C@@H]8O[C@H](CO)[C@@H](O)[C@H](O)[C@H]8O)[C@H]7O)[C@H](O)[C@H]6O)[C@H](O)C[C@]5(C)[C@H]4CC[C@]3(C)[C@H]1[C@@H]2C [DGTN, digitonin, reference compound]
output: 0

====

# ASSAY_SUMMARY: Cell viability, crystal violet (CV) assay, PC-3
# Assay type: cell-based
# TEST_PARAMETERS: human, PC-3 prostatic carcinoma cells, 0.01 µM
VALUE_KIND: viability at 48 h, 0.01 µM (%)
Give the value in % but do not write % after it.

input: Requested field: viability at 48 h, 0.01 µM. Item: C=C(C)C(=O)OC1CC2(C)OC(=CC2=O)C(CO)=CC2OC(=O)C(=C)C21 (stereo not shown) [Goyazensolide, goyazensolide]
output: 89.5

====

# ASSAY_SUMMARY: Cell viability, crystal violet (CV) assay, PC-3
# Format: cell-based
# TEST_PARAMETERS: human, 10 µM
VALUE_KIND: viability at 48 h, 10 µM

input: Requested field: viability at 48 h, 10 µM. Item: C=C1C(=O)OC2C=C(CO)C3=CC(=O)C(C)(CC(OC(=O)C(C)=CC)C12)O3 (stereo not shown)
output: 0%

====

# ASSAY_SUMMARY: Cell viability, MTT assay, HCT-116
# Type: cell-based, human
# TEST_PARAMETERS: human, 0.01 µM
VALUE_KIND: viability at 48 h, 0.01 µM (%)
Give the value in % but do not write % after it.

input: Requested field: viability at 48 h, 0.01 µM. Item: C=C1C(=O)OC2C=C(CO)C3=CC(=O)C(C)(CC(OC(=O)C(C)=CC)C12)O3 (stereo not shown) [Centratherin, centratherin]
output: 100

====

# ASSAY_SUMMARY: Cell viability, MTT assay, PC-3
# Assay type: cell-based, human
# TEST_PARAMETERS: human, 0.01 µM
VALUE_KIND: viability at 48 h, 0.01 µM (%)
Give the value in % but do not write % after it.

input: Requested field: viability at 48 h, 0.01 µM. Item: C=C1C(=O)OC2C=C(CO)C3=CC(=O)C(C)(CC(OC(=O)C(C)=CC)C12)O3 (stereo not shown) [Centratherin, centratherin]
output: 100

FYI, the data here is from paper PMC12566191.
